# System under test: Recombinant PRC2 (EZH2-Y641F) (Homo sapiens (Human), UniProt Q15910, Y641F)
# Sequence (Q15910 whole entry Y641F): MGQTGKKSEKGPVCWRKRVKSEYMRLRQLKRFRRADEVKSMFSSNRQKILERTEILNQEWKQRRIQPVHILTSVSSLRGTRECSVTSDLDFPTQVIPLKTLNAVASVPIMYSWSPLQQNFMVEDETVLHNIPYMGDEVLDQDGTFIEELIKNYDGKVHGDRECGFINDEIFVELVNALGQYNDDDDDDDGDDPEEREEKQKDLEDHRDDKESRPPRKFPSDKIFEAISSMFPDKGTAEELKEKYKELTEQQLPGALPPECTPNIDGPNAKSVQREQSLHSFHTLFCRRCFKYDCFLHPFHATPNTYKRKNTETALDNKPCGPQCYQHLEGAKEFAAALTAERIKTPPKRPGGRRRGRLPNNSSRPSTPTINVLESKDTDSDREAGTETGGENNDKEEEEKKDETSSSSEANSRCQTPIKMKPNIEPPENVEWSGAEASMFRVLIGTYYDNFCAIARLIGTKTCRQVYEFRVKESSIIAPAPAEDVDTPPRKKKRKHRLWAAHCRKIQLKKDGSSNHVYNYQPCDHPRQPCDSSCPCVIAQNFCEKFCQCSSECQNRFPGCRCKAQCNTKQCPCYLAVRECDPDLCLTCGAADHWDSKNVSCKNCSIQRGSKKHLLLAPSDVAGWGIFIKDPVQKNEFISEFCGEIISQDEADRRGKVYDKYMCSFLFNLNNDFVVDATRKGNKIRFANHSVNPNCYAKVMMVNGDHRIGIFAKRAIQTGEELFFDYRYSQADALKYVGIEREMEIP
# Sequence (O75530 whole entry partner): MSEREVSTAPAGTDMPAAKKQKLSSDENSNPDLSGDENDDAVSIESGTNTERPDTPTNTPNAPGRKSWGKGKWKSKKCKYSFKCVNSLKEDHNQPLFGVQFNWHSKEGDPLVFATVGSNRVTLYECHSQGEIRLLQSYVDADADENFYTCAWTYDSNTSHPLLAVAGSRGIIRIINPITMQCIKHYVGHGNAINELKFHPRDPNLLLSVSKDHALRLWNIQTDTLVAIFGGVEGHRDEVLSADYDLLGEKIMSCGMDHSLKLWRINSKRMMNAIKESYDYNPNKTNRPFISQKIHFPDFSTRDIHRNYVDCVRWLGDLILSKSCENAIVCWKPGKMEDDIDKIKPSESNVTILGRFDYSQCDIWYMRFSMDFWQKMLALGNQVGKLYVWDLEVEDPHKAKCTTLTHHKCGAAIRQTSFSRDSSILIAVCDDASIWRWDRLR
# Sequence (Q15022 whole entry partner): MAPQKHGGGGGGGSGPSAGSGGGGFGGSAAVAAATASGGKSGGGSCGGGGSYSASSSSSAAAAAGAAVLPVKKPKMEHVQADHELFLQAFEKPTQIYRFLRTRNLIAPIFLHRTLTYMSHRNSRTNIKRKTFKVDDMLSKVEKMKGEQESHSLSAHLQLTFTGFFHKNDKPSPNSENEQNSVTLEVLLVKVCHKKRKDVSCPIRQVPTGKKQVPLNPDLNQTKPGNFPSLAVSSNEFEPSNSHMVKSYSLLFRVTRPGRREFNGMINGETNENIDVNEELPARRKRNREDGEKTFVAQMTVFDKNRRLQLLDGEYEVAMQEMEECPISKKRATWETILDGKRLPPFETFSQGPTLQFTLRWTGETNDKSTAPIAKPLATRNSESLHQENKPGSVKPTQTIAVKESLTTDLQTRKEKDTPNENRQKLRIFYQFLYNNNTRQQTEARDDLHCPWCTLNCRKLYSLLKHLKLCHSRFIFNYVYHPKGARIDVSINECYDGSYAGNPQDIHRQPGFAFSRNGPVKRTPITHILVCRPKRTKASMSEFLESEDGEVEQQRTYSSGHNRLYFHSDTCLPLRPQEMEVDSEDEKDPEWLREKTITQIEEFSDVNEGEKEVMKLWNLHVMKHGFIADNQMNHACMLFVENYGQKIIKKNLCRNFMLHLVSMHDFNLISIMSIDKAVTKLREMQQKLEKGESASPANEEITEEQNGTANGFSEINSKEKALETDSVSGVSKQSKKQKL
# Sequence (Q09028 whole entry partner): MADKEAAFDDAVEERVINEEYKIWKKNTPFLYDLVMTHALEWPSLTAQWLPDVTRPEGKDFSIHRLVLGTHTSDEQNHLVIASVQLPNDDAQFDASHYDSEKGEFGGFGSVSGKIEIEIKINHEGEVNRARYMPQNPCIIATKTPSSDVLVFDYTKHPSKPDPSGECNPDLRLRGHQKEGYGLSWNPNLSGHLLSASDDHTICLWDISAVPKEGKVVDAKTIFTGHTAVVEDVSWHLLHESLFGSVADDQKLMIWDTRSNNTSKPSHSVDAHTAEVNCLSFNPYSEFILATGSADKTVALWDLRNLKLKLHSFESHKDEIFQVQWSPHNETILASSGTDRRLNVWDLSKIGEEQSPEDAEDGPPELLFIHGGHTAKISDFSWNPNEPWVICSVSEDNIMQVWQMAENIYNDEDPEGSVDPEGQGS
# Sequence (Q6ZN18 whole entry partner): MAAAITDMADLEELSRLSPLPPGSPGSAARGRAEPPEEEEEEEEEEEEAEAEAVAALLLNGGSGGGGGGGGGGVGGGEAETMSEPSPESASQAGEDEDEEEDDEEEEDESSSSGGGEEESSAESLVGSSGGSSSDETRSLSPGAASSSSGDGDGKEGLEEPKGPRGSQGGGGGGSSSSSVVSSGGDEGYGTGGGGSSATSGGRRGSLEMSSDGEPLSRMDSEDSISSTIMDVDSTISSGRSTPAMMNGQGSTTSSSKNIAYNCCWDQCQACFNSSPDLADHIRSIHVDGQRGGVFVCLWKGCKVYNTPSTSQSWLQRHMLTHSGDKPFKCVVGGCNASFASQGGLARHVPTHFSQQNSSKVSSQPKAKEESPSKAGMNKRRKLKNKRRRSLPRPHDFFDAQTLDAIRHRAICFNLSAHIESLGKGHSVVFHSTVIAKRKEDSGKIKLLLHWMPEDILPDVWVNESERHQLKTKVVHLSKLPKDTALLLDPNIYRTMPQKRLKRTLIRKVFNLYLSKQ
# Experiment description: In vitro methyltransferase activity assay (LANCE Ultra)
# Particulars: 2.5 μM SAM/250 nM H3(1-50)K27me1, 3 hours, room temperature
Endpoint: IC50 (nM)
Record the value in nM, omitting the unit from your answer.

Record request: IC50 value, item "CCN(c1ccc(CN(C)C)cc1)c1c(C)c(C(=O)NCc2c(C)cc(C)[nH]c2=O)cc2c1cnn2C"
33

What value of measured IC50 is listed for CCc1c(C(=O)NCc2c(C)cc(C)[nH]c2=O)cc2c(cnn2C)c1N(CC)C1CCC(NC(F)(F)F)CC1 (stereo not shown) ?
46

Sample CCc1c(C(=O)NCc2c(C)cc(C)[nH]c2=O)cc2c(cnn2C)c1N(CC)C1CCC(N2CCOCC2)CC1 (stereo not shown) — what was its IC50?
9

If you can, please state the reported IC50 value of "CCN(c1c(C#N)c(C(=O)NCc2c(C)cc(C)[nH]c2=O)cc2c1cnn2C)C1CCOCC1" .
1750
